Ref: the supplement of paper PMC10567573

B1: ADAMTS4 (parent)
chain: HVDPEEPWSPCSARFITDFLDNGY

- Variants of: B1
- assay_comment: protein stability index of a GFP-peptide fusion (GPS, HEK-293T) (PSI 1-6); higher = more stable;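 note: lentivirally expressed fusions sorted by FACS into six bins by GFP to DsRed ratio, PSI derived from sequencing read proportions per bin multiplied by bin number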
- condition: c terminus: a fixed tail appended
The variants listed here are annotated with their protein stability index.
Give the figure by itself; no unit, no explanation.

[Q] Which protein stability index is reported for this variant? P10Y
[A] 1.79

[Q] Which protein stability index is reported for this variant? D18C
[A] 2.73

[Q] Which protein stability index is reported for this variant? L20P
[A] 2.15

Here is the next item to consider.
[Q] Which protein stability index is reported for this variant? H1T
[A] 2.77
